settings: 60% to 70% relative humidity, dark, air, 5 d; measured 63% (Form A 57%), 24° C.
Please provide measured HPLC-purity for the entries that follow.
One number for each entry, in %.

For the compound Nc1nc(O)c2c(CCc3ccc(C(=O)N[C@@H](CCC(=O)O)C(=O)O)cc3)c[nH]c2n1 [Form IV] , what HPLC-purity is on record? 99.75

For the compound Nc1nc(O)c2c(CCc3ccc(C(=O)N[C@@H](CCC(=O)O)C(=O)O)cc3)c[nH]c2n1 [2.5 hydrate] , what HPLC-purity is on record? 99.86

For the compound Nc1nc(O)c2c(CCc3ccc(C(=O)N[C@@H](CCC(=O)O)C(=O)O)cc3)c[nH]c2n1 [Heptahydrate] , what HPLC-purity is on record? 99.81

More entries:
For the compound Nc1nc(O)c2c(CCc3ccc(C(=O)N[C@@H](CCC(=O)O)C(=O)O)cc3)c[nH]c2n1 [Form A] , what HPLC-purity is on record? 99.51

====

Please provide measured HPLC-purity for the entries that follow.
details: 39% to 50% relative humidity, dark, air, 16 d; measured 47.3% (Form A 46.4%), 24° C.
One number for each entry, in %.

For the compound Nc1nc(O)c2c(CCc3ccc(C(=O)N[C@@H](CCC(=O)O)C(=O)O)cc3)c[nH]c2n1 [Heptahydrate] , what HPLC-purity is on record? 99.91

For the compound Nc1nc(O)c2c(CCc3ccc(C(=O)N[C@@H](CCC(=O)O)C(=O)O)cc3)c[nH]c2n1 [Form IV] , what HPLC-purity is on record? 99.81

For the compound Nc1nc(O)c2c(CCc3ccc(C(=O)N[C@@H](CCC(=O)O)C(=O)O)cc3)c[nH]c2n1 [Form A] , what HPLC-purity is on record? 99.70

Continue with the next compound.
For the compound Nc1nc(O)c2c(CCc3ccc(C(=O)N[C@@H](CCC(=O)O)C(=O)O)cc3)c[nH]c2n1 [2.5 hydrate] , what HPLC-purity is on record? 99.86

====

conditions: 27% to 33% relative humidity, dark, air, 5 d; measured 29% (Form A 27%), 24° C.
Please provide measured HPLC-purity for the entries that follow.
One number for each entry, in %.

For the molecule Nc1nc(O)c2c(CCc3ccc(C(=O)N[C@@H](CCC(=O)O)C(=O)O)cc3)c[nH]c2n1 [Heptahydrate] , what HPLC-purity is on record? 99.62

For the molecule Nc1nc(O)c2c(CCc3ccc(C(=O)N[C@@H](CCC(=O)O)C(=O)O)cc3)c[nH]c2n1 [Form A] , what HPLC-purity is on record? 99.43

For the molecule Nc1nc(O)c2c(CCc3ccc(C(=O)N[C@@H](CCC(=O)O)C(=O)O)cc3)c[nH]c2n1 [2.5 hydrate] , what HPLC-purity is on record? 99.91

More entries:
For the molecule Nc1nc(O)c2c(CCc3ccc(C(=O)N[C@@H](CCC(=O)O)C(=O)O)cc3)c[nH]c2n1 [Form IV] , what HPLC-purity is on record? 99.73

====

settings: 5% to 12% relative humidity, dark, air, 2 d; measured 11.7% (Form A 5.8%), 23° C.
Please provide measured H2O (KFT) for the entries that follow.
Field: value (include unit after the number)

For the compound Nc1nc(O)c2c(CCc3ccc(C(=O)N[C@@H](CCC(=O)O)C(=O)O)cc3)c[nH]c2n1 [Form A] , what H2O (KFT) is on record? 3.5%

For the compound Nc1nc(O)c2c(CCc3ccc(C(=O)N[C@@H](CCC(=O)O)C(=O)O)cc3)c[nH]c2n1 [Heptahydrate] , what H2O (KFT) is on record? 19.7%

For the compound Nc1nc(O)c2c(CCc3ccc(C(=O)N[C@@H](CCC(=O)O)C(=O)O)cc3)c[nH]c2n1 [2.5 hydrate] , what H2O (KFT) is on record? 8.9%

More entries:
For the compound Nc1nc(O)c2c(CCc3ccc(C(=O)N[C@@H](CCC(=O)O)C(=O)O)cc3)c[nH]c2n1 [Form IV] , what H2O (KFT) is on record? 1.0%

These data points were gathered from patent US9174991B2.
